- assay.notes: Cmax in Sprague-Dawley rat at 0.5 mg/kg, iv measured upto 24 hrs by LC-MS/MS analysis
- Assay type: ADME, organism-based
- Parameters: time < 24 hrs, dose 0.5 mg/kg, route iv
- measurement.setup: in vivo
value.kind: Cmax

> print(dat)
                           structure.smiles  value.kind     result
1  CC(C)n1cnnc1-c1cccc(NC(=O)c2cc3c(cc2F)OC(C)(C)C(=O)N3C)n1        Cmax  239 ng/mL
2  CC(C)n1cnnc1-c1cccc(NC(=O)c2cc3c(cc2F)OC(C)(C)C(=O)N3)n1        Cmax  350 ng/mL
3  O=C1COc2cc(F)c(C(=O)Nc3cccc(-c4nncn4C4CC4)n3)cc2N1        Cmax  489 ng/mL
4  O=C1CCc2cc(F)c(C(=O)Nc3cccc(-c4nncn4C4CC4)n3)cc2N1        Cmax  447 ng/mL
